biological target: tauP301L (Homo sapiens, UniProt P10636, P618L); experiment: WB degradation of tauP301L in SH-SY5Y-tauP301L cells; type: cell-based; details: densitometry, dosage degradation; SH-SY5Y-Tau-TiFC; 10uM; average of N=3
Sequence (P10636 1-441 isoform P10636-8 P301L): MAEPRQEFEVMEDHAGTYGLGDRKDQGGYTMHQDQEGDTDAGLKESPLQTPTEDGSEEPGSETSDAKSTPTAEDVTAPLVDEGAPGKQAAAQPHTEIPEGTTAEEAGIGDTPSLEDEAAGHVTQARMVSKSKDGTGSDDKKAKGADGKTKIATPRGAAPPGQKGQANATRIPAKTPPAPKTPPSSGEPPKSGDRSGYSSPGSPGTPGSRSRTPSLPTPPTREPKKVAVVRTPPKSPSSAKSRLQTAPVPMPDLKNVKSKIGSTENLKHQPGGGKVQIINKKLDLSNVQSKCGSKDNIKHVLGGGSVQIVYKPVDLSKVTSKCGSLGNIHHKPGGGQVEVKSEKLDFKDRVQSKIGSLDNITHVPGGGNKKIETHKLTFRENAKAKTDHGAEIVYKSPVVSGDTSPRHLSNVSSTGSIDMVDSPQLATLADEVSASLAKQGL
Exercise: for every item that follows, state its recorded Tau normalized to GAPDH and control, AVG %.
One number for each entry, in %.

Working through the 4 compounds below one at a time, give Tau normalized to GAPDH and control, AVG % for each.
1. O=C(CCCc1ccccc1)NCCOCCOCCOCCNCc1ccc(OCc2ccccc2)c(OCc2ccccc2)c1 [PBA-1105]
2. Fc1ccc(COc2cccc(CNCCOCCOCCNc3cccc(-c4cc(-c5ccc6c(c5)OCO6)n[nH]4)c3)c2)cc1 [Anle.-F105]
3. O=C(O)CCCc1ccccc1 [4-PBA, 4-phenylbutyric acid]
4. Brc1cccc(-c2cc(-c3ccc4c(c3)OCO4)[nH]n2)c1 [Anle138b, reference compound]

Result string:
[73.3109, 11.8682, 93.7866, 83.6402]

----------
test: WST-based cell viability assay in ACHN cells; settings: human, ACHN cells, ACHN, 100uM; duplicates; read-out: WST assay viability relative to con = 100
MEASURED METRIC: viability at 100 µM (%)
Answers are plain numbers, in %.

{"COMPOUND": "O[C@H](CNCCOCCOCCOc1ccc(-c2c(-c3ccccc3)nn3c(C(F)(F)F)cc(C(F)(F)F)nc23)cc1)COc1ccc(OCc2ccccc2)c(OCCCc2ccccc2)c1", "READING UNIT": "%", "viability at 100 µM": 14.8}

Please find the next compound below.
Query string: Item under review: CC(C)NCC(O)COc1ccc(OCc2ccccc2)c(OCCCc2ccccc2)c1 (centres unmarked) . Reported viability at 100 µM?
Result string: 64.9

----------
test system: ACHN cells; experiment: WST-based cell viability assay in ACHN cells; conditions: ACHN cells, WST-based viability assay; read-out: cytotoxicity IC50
MEASURED METRIC: pIC50
Answers are plain numbers, as −log10 of the molar value.

Query string: Item under review: Oc1ccc(-c2c(-c3ccccc3)nn3c(C(F)(F)F)cc(C(F)(F)F)nc23)cc1 [PHTPP, reference compound] . Reported pIC50?
Result string: 4.74

----------
assay: WST-based cell viability assay in ACHN cells; settings: human, ACHN cells, ACHN, 100uM; read-out: WST assay viability, AVG %
MEASURED METRIC: viability at 100 µM (%)
Answers are plain numbers, in %.

{"COMPOUND": "O[C@H](CNCCOCCOCCOc1ccc(-c2c(-c3ccccc3)nn3c(C(F)(F)F)cc(C(F)(F)F)nc23)cc1)COc1ccc(OCc2ccccc2)c(OCCCc2ccccc2)c1", "RECORDED RESULT": 15.8}

Please find the next compound below.
Query string: Item under review: CC(C)NCC(O)COc1ccc(OCc2ccccc2)c(OCCCc2ccccc2)c1 (centres unmarked) . Reported viability at 100 µM?
Result string: 67.1

----------
assay: in vitro; details: human, WST assay viability, AVG %
MEASURED METRIC: viability at 10 µM (%)
Answers are plain numbers, in %.

Query string: Item under review: C=CC1(C)OC(=O)N(c2cc(Cl)cc(Cl)c2)C1=O (stereo not shown) . Reported viability at 10 µM?
Result string: 98.3
